Molecular target: T1, Lsb1, P53281
T1 sequence (P53281 45-122, looked up): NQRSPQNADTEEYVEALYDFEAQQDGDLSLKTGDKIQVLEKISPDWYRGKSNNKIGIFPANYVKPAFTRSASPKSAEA
Assay: SPOT array
Settings: median of control spots 388
endpoint: SPOT intensity

TKIRRRPQQPLTDFT :: 30
DKKTKPTPPPKPSHL :: 0
KNRKNLPTIPIRLSG :: 1220
AKDLIVPRRPEWNEG :: 636
KRKRRLPVSEDTNTK :: 1

[A] NENKKLPPAPTVFGL
[B] VPPVPLPFGIPPFPM
Query: Consider A and B . Which of these has its SPOT intensity at a higher number? Refer to your chosen entry by its label in the reply.
Result: B

[A] KTRLRPAFIQQLWSS
[B] VFQFQMPTTPISTKM
Query: Consider A and B . Which of these has its SPOT intensity at a higher number? Refer to your chosen entry by its label in the reply.
Result: B
(B: 1, A: 0)
